protocol.description: recombinant barcode read abundance after kanamycin selection (control-corrected) (log10(CPM+1)); higher = more efficient recombination; sequences stand for … in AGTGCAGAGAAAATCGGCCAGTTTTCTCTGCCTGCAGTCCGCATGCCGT…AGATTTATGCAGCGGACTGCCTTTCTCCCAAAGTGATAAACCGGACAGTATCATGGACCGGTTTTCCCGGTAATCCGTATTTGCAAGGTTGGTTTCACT; site = the 11-nt target;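 further: IS621 recombinase and bridge RNA in Escherichia coli cells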
Kind request: treat 0.04 as inclusive, so recombinant barcode read abundance (log10) at 0.04 or higher is True, anything lower is False.

For orientation, consider the following solved cases.
{"ordered.residues": "AGTAAGACTTGGGTTCTAACCTGTTGCGT (site AGTAAGACTAC)", "classification": "True"}
{"ordered.residues": "ATCTCAACTTGGGTTCTAACCTGTTGCCT (site ACCTTAACTAG)", "classification": "False"}
{"ordered.residues": "GTCCAGCCTTGGGTTCTAACCTGTTGCAT (site GTCCAGCCTAT)", "classification": "True"}
{"ordered.residues": "GTGAGGCCTTGGGTTCTAACCTGTTGCCT (site TTGAGGCCTAG)", "classification": "True"}

Please examine the following record next.
IN: Please indicate if the recorded recombinant barcode read abundance (log10) for ATGTATTCTTGGGTTCTAACCTGTTGCCT (site ATGTATTCTAG) meets or exceeds 0.04.
OUT: True
